Values from patent US20230349919A1

targetSystem: T1, Der p 2 (house dust mite, UniProt P49278 18-146)
T1 construct: Also used oligonucleotide-barcoded for cell staining
T1 sequence (looked up): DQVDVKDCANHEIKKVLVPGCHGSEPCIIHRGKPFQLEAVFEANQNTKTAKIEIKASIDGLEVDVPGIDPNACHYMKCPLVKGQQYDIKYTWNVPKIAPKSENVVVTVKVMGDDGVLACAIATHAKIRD
testName: centered log-ratio of barcode count
Labelling: Derp2_ab_clr reported below 0.7 becomes 1.0; at or above becomes 0.0.

binder	assignedCategory
IgE mAb 13_2 (antibody, V domains shown, IgE (IGHE, IGKC) from HDM-exposed mouse, LymphNode) VH: EVQLQQSGPELVKPGASVKISCKASGYTFTDYYMNWVKQSHGKSLEWIGDINPNNGGTSYNQKFKGKATLTVDKSSSTAYMELRSLTSEDSAVYYCAYGPPRGPPWFAYWGQGTLVTVSA VL: DIVLTQSPASLAVSLGQRATISCRASKSVSTSGYSYMHWYQQKPGQPPKLLIYLASNLESGVPARFSGSGSGTDFTLNIHPVEEEDAATYYCQHSRELPWTFGGGTKLEIK	0.0
IgE mAb 12_2 (antibody, V domains shown) VH: QAYLQQSGAELVRPGASVKMSCKASGYTFISYNMHWVKQTRRQGLEWIGAIYPGNGDTSYNQKFKGKATLTVDKSSSTAYMQLSSLTSEDSAVYFCARWDYYGSSYGAYWGQGTLVTVSA VL: DIQMTQSPASLSVSVGETVTITCRASENIYSNLAWYQQKQGKSPQLLVYAATNLADGVPSRFSGSGSGTQYSLKINSLQSEDFGSYYCQHFWGTPWTFGGGTKLEIK	1.0
IgE mAb 21_2 (antibody, V domains shown, IgE (IGHE, IGKC) from HDM-exposed mouse, LymphNode) VH: QVQLQQSGPELVKPGASVKISCKAPGNAFSYSWMNWVKQRPGKGLEWVGRIYPGDGDTNYNGKFMGKATLTADKSSNTAYIQLSSLTSEDSAVYFCARSGGGTLYWYFDVWGTGTTVTVSS VL: DIVMTQSPSSLALSVGQKVTMNCRSSQSLLNSFNQKNYLAWFQQKPGQSPRLLIYFASTRESGVPDRFIGSGSGTDFTLTISSVQAEDLADYFCQQHYNTPLTFGAGTTLELK	0.0
IgE mAb 8_2 (antibody, V domains shown, IgE (IGHE, IGKC) from HDM-exposed mouse, BoneMarrow) VH: QVLLKESGPGLVAPSQSLSITCTVSGFSLTSYGVSWVRQPPGKGLEWLGVIWGDGNTDYHSALISRLSIRKDNSKSQVFLKLNSLQTDDTATYYCAIGSPFAYWGQGTLVTVSA VL: DVLMTQTPLSLPVSLGDQVSISCRSSQNIVHSTGNTYLEWYLQKPGQSPKLLIFKVSNRLSGVPDRFSGSGSGTDFTLNISRVEAADLGIYSCFQGSHVPFTFGSGTKLEIK	1.0
IgE mAb 17_2 (antibody, V domains shown, IgE (IGHE, IGKC) from HDM-exposed mouse, LymphNode) VH: EVHLQQSGPDLVKPGASVMISCQASGYSFTAYYINWVKQSPEKSLEWIGEINPGSGGVIYNRKFEAKATLIVDKSSNTAFMLLTRLTSEDSAIYYCARKGFYQFDYWGQGTTLTVSS VL: SVVMTQIPKFLVVSAGDRVTITCKASQSVNDGVFWYQQKTGQSPKLVIYHTSNRYTGVSDRFTGSGYGTEFTFTISAVQSEDLAIYFCQQDYTSPLTFGGGTRLEIK	1.0
IgE mAb 1_2 (antibody, V domains shown, IgE (IGHE, IGKC) from HDM-exposed mouse, BoneMarrow) VH: QIQLVQSGPELKKPGETVKISCKASGYTFTTYGMSWVKQAPGKGLKWMGWINTYSGVPTYADDFKGRFVFSLETSASTAYLQINNLKNEDTATYFCARAYYYGSSYLIWYFDVWGTGTTVTVSS VL: NIVLTQSPASLAVSLGQRATISCRASESVDSYGNSFMHWYQQKPGQPPKLLIYLASNLESGVPARFSGSGSRTDFTLTIDPVEADDAATYYCQQNNEDPYTFGGGTKLEIK	0.0
